Listed here are variants together with their documented normalized RNA/DNA level without ligand (log10).
B1: library; a variant is named by its letters at N, in order (parent)
chain: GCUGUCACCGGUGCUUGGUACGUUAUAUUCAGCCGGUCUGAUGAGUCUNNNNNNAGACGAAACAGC

variants of: B1; experiment: normalized RNA/DNA level without ligand (relative to sTRSVctl = 100) (log10 (% of sTRSVctl)); HEK293T overexpressing SLC46A1; higher = less ribozyme self-cleavage, higher mRNA level; conditions: without (6R,S)-folinic acid; ligand present: no
result.type: normalized RNA/DNA level without ligand (log10)

query_sequence="GCUGUCACCGGUGCUUGGUACGUUAUAUUCAGCCGGUCUGAUGAGUCUUCGCUCAGACGAAACAGC [UCGCUC]" value_measured=2.04
query_sequence="GCUGUCACCGGUGCUUGGUACGUUAUAUUCAGCCGGUCUGAUGAGUCUCCUCACAGACGAAACAGC [CCUCAC]" value_measured=2.05
query_sequence="GCUGUCACCGGUGCUUGGUACGUUAUAUUCAGCCGGUCUGAUGAGUCUGCUCUGAGACGAAACAGC [GCUCUG]" value_measured=1.99
query_sequence="GCUGUCACCGGUGCUUGGUACGUUAUAUUCAGCCGGUCUGAUGAGUCUGUCUCGAGACGAAACAGC [GUCUCG]" value_measured=2
query_sequence="GCUGUCACCGGUGCUUGGUACGUUAUAUUCAGCCGGUCUGAUGAGUCUGGAUUAAGACGAAACAGC [GGAUUA]" value_measured=2.01
query_sequence="GCUGUCACCGGUGCUUGGUACGUUAUAUUCAGCCGGUCUGAUGAGUCUAACAGCAGACGAAACAGC [AACAGC]" value_measured=2.02
query_sequence="GCUGUCACCGGUGCUUGGUACGUUAUAUUCAGCCGGUCUGAUGAGUCUGCCUUCAGACGAAACAGC [GCCUUC]" value_measured=2.05
query_sequence="GCUGUCACCGGUGCUUGGUACGUUAUAUUCAGCCGGUCUGAUGAGUCUGCUCGGAGACGAAACAGC [GCUCGG]" value_measured=2.03
query_sequence="GCUGUCACCGGUGCUUGGUACGUUAUAUUCAGCCGGUCUGAUGAGUCUUGCGAAAGACGAAACAGC [UGCGAA]" value_measured=1.97
query_sequence="GCUGUCACCGGUGCUUGGUACGUUAUAUUCAGCCGGUCUGAUGAGUCUCAGUCUAGACGAAACAGC [CAGUCU]" value_measured=2.02
query_sequence="GCUGUCACCGGUGCUUGGUACGUUAUAUUCAGCCGGUCUGAUGAGUCUUCGACUAGACGAAACAGC [UCGACU]" value_measured=2.01
query_sequence="GCUGUCACCGGUGCUUGGUACGUUAUAUUCAGCCGGUCUGAUGAGUCUGGACGAAGACGAAACAGC [GGACGA]" value_measured=2.02
query_sequence="GCUGUCACCGGUGCUUGGUACGUUAUAUUCAGCCGGUCUGAUGAGUCUAUACCCAGACGAAACAGC [AUACCC]" value_measured=2.02
query_sequence="GCUGUCACCGGUGCUUGGUACGUUAUAUUCAGCCGGUCUGAUGAGUCUUCUCUAAGACGAAACAGC [UCUCUA]" value_measured=2
query_sequence="GCUGUCACCGGUGCUUGGUACGUUAUAUUCAGCCGGUCUGAUGAGUCUUUUCACAGACGAAACAGC [UUUCAC]" value_measured=2.02
query_sequence="GCUGUCACCGGUGCUUGGUACGUUAUAUUCAGCCGGUCUGAUGAGUCUAGACCGAGACGAAACAGC [AGACCG]" value_measured=2.05
query_sequence="GCUGUCACCGGUGCUUGGUACGUUAUAUUCAGCCGGUCUGAUGAGUCUUGUCGUAGACGAAACAGC [UGUCGU]" value_measured=1.95
query_sequence="GCUGUCACCGGUGCUUGGUACGUUAUAUUCAGCCGGUCUGAUGAGUCUUGGCUAAGACGAAACAGC [UGGCUA]" value_measured=2.03
query_sequence="GCUGUCACCGGUGCUUGGUACGUUAUAUUCAGCCGGUCUGAUGAGUCUCAUGAUAGACGAAACAGC [CAUGAU]" value_measured=1.97
query_sequence="GCUGUCACCGGUGCUUGGUACGUUAUAUUCAGCCGGUCUGAUGAGUCUUGACCAAGACGAAACAGC [UGACCA]" value_measured=2.04
query_sequence="GCUGUCACCGGUGCUUGGUACGUUAUAUUCAGCCGGUCUGAUGAGUCUCACAAAAGACGAAACAGC [CACAAA]" value_measured=1.98
query_sequence="GCUGUCACCGGUGCUUGGUACGUUAUAUUCAGCCGGUCUGAUGAGUCUGCGGGGAGACGAAACAGC [GCGGGG]" value_measured=2.05
query_sequence="GCUGUCACCGGUGCUUGGUACGUUAUAUUCAGCCGGUCUGAUGAGUCUCGGGGUAGACGAAACAGC [CGGGGU]" value_measured=2.04
query_sequence="GCUGUCACCGGUGCUUGGUACGUUAUAUUCAGCCGGUCUGAUGAGUCUGGAAGAAGACGAAACAGC [GGAAGA]" value_measured=1.99
query_sequence="GCUGUCACCGGUGCUUGGUACGUUAUAUUCAGCCGGUCUGAUGAGUCUGCAAAGAGACGAAACAGC [GCAAAG]" value_measured=1.95
query_sequence="GCUGUCACCGGUGCUUGGUACGUUAUAUUCAGCCGGUCUGAUGAGUCUUAUCCCAGACGAAACAGC [UAUCCC]" value_measured=2.05
query_sequence="GCUGUCACCGGUGCUUGGUACGUUAUAUUCAGCCGGUCUGAUGAGUCUUUCCAUAGACGAAACAGC [UUCCAU]" value_measured=1.99
query_sequence="GCUGUCACCGGUGCUUGGUACGUUAUAUUCAGCCGGUCUGAUGAGUCUCCAUUUAGACGAAACAGC [CCAUUU]" value_measured=2.01
query_sequence="GCUGUCACCGGUGCUUGGUACGUUAUAUUCAGCCGGUCUGAUGAGUCUCUCAGAAGACGAAACAGC [CUCAGA]" value_measured=2.05
query_sequence="GCUGUCACCGGUGCUUGGUACGUUAUAUUCAGCCGGUCUGAUGAGUCUAAUGACAGACGAAACAGC [AAUGAC]" value_measured=1.97
query_sequence="GCUGUCACCGGUGCUUGGUACGUUAUAUUCAGCCGGUCUGAUGAGUCUCACUUUAGACGAAACAGC [CACUUU]" value_measured=1.99
query_sequence="GCUGUCACCGGUGCUUGGUACGUUAUAUUCAGCCGGUCUGAUGAGUCUUUUAUAAGACGAAACAGC [UUUAUA]" value_measured=1.99
query_sequence="GCUGUCACCGGUGCUUGGUACGUUAUAUUCAGCCGGUCUGAUGAGUCUCAAAUGAGACGAAACAGC [CAAAUG]" value_measured=2.01
query_sequence="GCUGUCACCGGUGCUUGGUACGUUAUAUUCAGCCGGUCUGAUGAGUCUGAGUCCAGACGAAACAGC [GAGUCC]" value_measured=2.04
query_sequence="GCUGUCACCGGUGCUUGGUACGUUAUAUUCAGCCGGUCUGAUGAGUCUCUUCCCAGACGAAACAGC [CUUCCC]" value_measured=2.01
query_sequence="GCUGUCACCGGUGCUUGGUACGUUAUAUUCAGCCGGUCUGAUGAGUCUGUAGCUAGACGAAACAGC [GUAGCU]" value_measured=2.01
query_sequence="GCUGUCACCGGUGCUUGGUACGUUAUAUUCAGCCGGUCUGAUGAGUCUCUGGUAAGACGAAACAGC [CUGGUA]" value_measured=1.95
query_sequence="GCUGUCACCGGUGCUUGGUACGUUAUAUUCAGCCGGUCUGAUGAGUCUCAACGUAGACGAAACAGC [CAACGU]" value_measured=2.02
query_sequence="GCUGUCACCGGUGCUUGGUACGUUAUAUUCAGCCGGUCUGAUGAGUCUAAUAUCAGACGAAACAGC [AAUAUC]" value_measured=2.03
query_sequence="GCUGUCACCGGUGCUUGGUACGUUAUAUUCAGCCGGUCUGAUGAGUCUAGAGACAGACGAAACAGC [AGAGAC]" value_measured=1.98
query_sequence="GCUGUCACCGGUGCUUGGUACGUUAUAUUCAGCCGGUCUGAUGAGUCUAAAGUUAGACGAAACAGC [AAAGUU]" value_measured=1.97
query_sequence="GCUGUCACCGGUGCUUGGUACGUUAUAUUCAGCCGGUCUGAUGAGUCUGUCAGAAGACGAAACAGC [GUCAGA]" value_measured=2.03

Every entry's value here was drawn from the supplement of paper PMC6757056.
